- ASSAY PROTOCOL: NCI Yeast Anticancer Drug Screen. Data for the mlh1 rad18 strain (AID 175)
- SETUP CONDITIONS: S. cerevisiae mlh1 rad18 strain growth inhibition; at 50.0 µM (retest, dose inferred, filed as 5.0)
The panel holds about 79,000 compounds, 15% with a hit somewhere; the sample as a whole holds those more often. Active and inactive are the calls of the source. No stated cut-off is given here; in the data, active means growth inhibition above about 70%; inactive means the rest.
Possible outcomes: True for active, False for inactive

compound=O=c1cc(CI)oc2ccccc12 class=True
compound=CCC(=O)Sc1ccccc1C(=O)Nc1ccc(Cl)cc1 class=False
compound=Cc1ccsc1/C=N/Nc1ccc2ccccc2n1 class=True
compound="N=C(N)SC1c2ccccc2-c2cc([N+](=O)[O-])ccc21 (stereo not given)" class=True
compound=CC1=C(C(=O)Nc2ccccc2)C(c2cccc([N+](=O)[O-])c2)C(C(=O)Nc2ccccc2)=C(C)N1 class=False
compound="CN(C)CC1Cc2ccsc2C1=O (stereo not given)" class=True
compound=Nc1nc2c(ccc3ccccc32)s1 class=True
compound="Cc1cccc2c1C1OC(=O)C3CCC=C2C31 (stereo not given)" class=False
compound=CN(C)C(=S)/N=c1\ss/c(=N/C(=S)N(C)C)n1-c1ccc([N+](=O)[O-])cc1 class=False
compound=O=C1c2ccccc2C(=O)c2sc(Nc3ccc(Cl)cc3)nc21 class=True
compound=O=C(O)CCCCC1CCCCC1.[Cu+2] class=True
compound="O=C1OC(c2ccccc2)CC1Cc1ccccc1 (stereo not given)" class=False
compound="Cc1ccc(C2SCc3nc4ccccc4n32)cc1 (stereo not given)" class=True
compound="CCOC(=O)CCC(NC(=O)c1ccc(NC(OC)c2nc3cc(C(F)(F)F)ccc3nc2-c2ccccc2)cc1)C(=O)OCC (stereo not given)" class=True
compound=Cc1cccc(C[P+](c2ccccc2)(c2ccccc2)c2ccccc2)c1 class=True
compound=O=[N+]([O-])c1cc(I)c(O)c(/C=N/NS(=O)(=O)c2ccc(Cl)cc2)c1 class=False
compound="O=C(CNC(=O)C(CSCc1ccccc1)NC(=O)OCc1ccccc1)Oc1c(Cl)c(Cl)c(Cl)c(Cl)c1Cl (stereo not given)" class=False
compound=CC(=O)OCC(=O)[C@@]1(O)CC[C@H]2[C@@H]3CCC4=CC(=O)C=C[C@]4(C)[C@@]3(F)[C@@H](O)C[C@@]21C class=True
compound=O=[N+]([O-])c1ccc(N=Nc2ccc(O)cc2O)cc1 class=True
compound="CC(C(O)c1ccccc1)[N+](=O)[O-] (stereo not given)" class=True
compound=CC1=NC(=Cc2ccc(Cl)cc2)C(=O)N1n1c(-c2ccccc2)nc2ccccc2c1=O class=False
compound=O=C1CCC/C(c2ccccc2)=N\N=C/1c1ccccc1 class=False
compound=O=C(Cn1cnc2ccc([N+](=O)[O-])cc21)N1CCN(c2ccccc2)CC1 class=False
compound=CC1=C(C(=O)Nc2cc(O)ccc2O)C(c2cccc([N+](=O)[O-])c2)C(C(=O)Nc2cc(O)ccc2O)=C(C)N1 class=False
compound="COc1ccccc1NC(=O)CC(=O)N1N=C(C)C(N=Nc2ccc(C(=O)O)cc2)C1=O (stereo not given)" class=False
compound="CCCCCCCCC(C)c1ccccc1O (stereo not given)" class=True
compound=COc1ccc2nc3cc(Cl)ccc3c(NCCNCCCNC(=O)c3cc(-c4ccccc4)nc4ccccc34)c2c1 class=True
compound=CCOP(=O)(CCCOc1cc(Cl)c(Cl)cc1Cl)OCC class=True
compound="CCOC(=O)C(C(C)=O)C1=C(Cl)C(=O)c2ccccc2C1=O (stereo not given)" class=True
compound=CN(C=O)c1ccc2c(c1)Cc1ccccc1-2 class=True
compound="CC(C(O)c1ccccc1)C(O)(C(F)(F)F)C(F)(F)F (stereo not given)" class=False
compound=COC(=O)c1ccc(/C=C/C2=CC(=O)C=CC2=O)cc1 class=False
compound=Cc1ccc(S(=O)(=O)NC(=O)CC2CCCCC2)cc1 class=True
compound=COC(=O)c1[nH]c(=O)c(C#N)c(C(=O)OC)c1C(=O)c1ccc2ccccc2c1 class=False
compound="Cc1ccc(S(=O)(=O)N(c2ccccc2-c2ccccc2)C(C)C(=O)O)cc1 (stereo not given)" class=True
compound=Cc1ccc(O)c2c(NCCCCCCNc3cc(C)[n+](C)c4c(C)ccc(O)c34)cc(C)[n+](C)c12 class=True
compound=O=c1[nH]c2ccccc2nc1CBr class=True
compound="CC1CC(C)CC(NC2=NCCO2)C1 (stereo not given)" class=False
compound="CCCN(CCC)CC(O)c1cc(-c2ccccc2)nc2c(Cl)cc(Cl)cc12 (stereo not given)" class=True
compound=Clc1ccc2nc3c(c(N4CCOCC4)c2c1)CCCC3 class=True
compound=O=C1C=CC(=O)C(Sc2ccccc2)=C1 class=True
compound="CCOC(=O)C(C(=O)OCC)C1(c2ccccc2)OC(=O)c2ccccc21 (stereo not given)" class=False
compound=O=[N+]([O-])/C(C(Cl)=C(Cl)Cl)=C(/Sc1ccccc1)N1CCOCC1 class=True
compound=Cc1c(N)cc(I)cc1[N+](=O)[O-] class=False
compound=O=C(O)/C=C/c1ccc([N+](=O)[O-])o1 class=True
